biological target: MAO-A (Homo sapiens); assay: MAO-A inhibition, in vitro fluorometric method; format: biochemical
Sequence (P21397 whole entry, species assumed): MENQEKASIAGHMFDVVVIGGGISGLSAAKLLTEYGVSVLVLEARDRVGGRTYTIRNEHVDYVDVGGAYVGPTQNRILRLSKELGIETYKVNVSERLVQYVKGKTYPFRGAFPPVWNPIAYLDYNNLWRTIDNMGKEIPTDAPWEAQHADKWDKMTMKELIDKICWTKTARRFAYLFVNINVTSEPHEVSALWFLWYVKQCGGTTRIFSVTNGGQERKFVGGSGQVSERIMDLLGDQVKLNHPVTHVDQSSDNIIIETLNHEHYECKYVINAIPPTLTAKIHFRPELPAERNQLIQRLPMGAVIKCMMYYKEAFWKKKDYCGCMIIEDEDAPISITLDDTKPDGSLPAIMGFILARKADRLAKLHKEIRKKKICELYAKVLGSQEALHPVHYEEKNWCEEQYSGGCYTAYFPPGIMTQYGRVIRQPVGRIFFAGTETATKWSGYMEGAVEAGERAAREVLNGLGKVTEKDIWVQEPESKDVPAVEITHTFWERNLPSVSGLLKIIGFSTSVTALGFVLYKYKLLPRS
For each record, write down the corresponding IC50.

Examples from the recorded data:
Q) Requested field: IC50. Item: COc1ccc2sc(NC(=O)c3ccc(CN4CCN(CCN(C)C)CC4)cc3)nc2c1
A) > 100 µM

Q) What does the record list as IC50 for C=CCN1CCN(Cc2ccc(C(=O)Nc3nc4cc(OC)ccc4s3)cc2)CC1 ?
A) > 1000 µM

Q) Please report the recorded IC50 for C=CCN1CCN(Cc2ccc(C(=O)Nc3nc4ccccc4s3)cc2)CC1 .
A) > 1000 µM

Fill in IC50 for each of the 3 molecules listed.
1. CC(C)N1CCN(Cc2ccc(C(=O)Nc3nc4ccccc4s3)cc2)CC1
2. CCN1CCN(Cc2ccc(C(=O)Nc3nc4cc(OC)ccc4s3)cc2)CC1
3. COc1ccc2sc(NC(=O)c3ccc(CN4CCN(C)CC4)cc3)nc2c1

A)
1. > 1000 µM
2. > 1000 µM
3. > 100 µM

Field: IC50. Fill in for each record below.
1. COc1ccc2sc(NC(=O)c3ccc(CN4CCN(C(C)C)CC4)cc3)nc2c1
2. COc1ccc2sc(NC(=O)c3ccc(CN4CCN(CCCN(C)C)CC4)cc3)nc2c1
3. C#CCN1CCN(Cc2ccc(C(=O)Nc3nc4cc(OC)ccc4s3)cc2)CC1

A)
1. > 1000 µM
2. > 100 µM
3. > 100 µM

# batch size: 5; output IC50 per entry
1. CN1CCN(Cc2ccc(C(=O)Nc3nc4ccccc4s3)cc2)CC1
2. CN(C)CCN1CCN(Cc2ccc(C(=O)Nc3nc4ccccc4s3)cc2)CC1
3. CN(C)CCCN1CCN(Cc2ccc(C(=O)Nc3nc4ccccc4s3)cc2)CC1
4. C#CCN1CCN(Cc2ccc(C(=O)Nc3nc4ccccc4s3)cc2)CC1
5. CCN1CCN(Cc2ccc(C(=O)Nc3nc4ccccc4s3)cc2)CC1

A)
1. > 100 µM
2. > 100 µM
3. > 100 µM
4. > 100 µM
5. > 1000 µM

====

For each of the molecules below, state its inhibition at 1000 µM.
Molecular target: UniProtKB P27338
Sequence (P27338 1-520): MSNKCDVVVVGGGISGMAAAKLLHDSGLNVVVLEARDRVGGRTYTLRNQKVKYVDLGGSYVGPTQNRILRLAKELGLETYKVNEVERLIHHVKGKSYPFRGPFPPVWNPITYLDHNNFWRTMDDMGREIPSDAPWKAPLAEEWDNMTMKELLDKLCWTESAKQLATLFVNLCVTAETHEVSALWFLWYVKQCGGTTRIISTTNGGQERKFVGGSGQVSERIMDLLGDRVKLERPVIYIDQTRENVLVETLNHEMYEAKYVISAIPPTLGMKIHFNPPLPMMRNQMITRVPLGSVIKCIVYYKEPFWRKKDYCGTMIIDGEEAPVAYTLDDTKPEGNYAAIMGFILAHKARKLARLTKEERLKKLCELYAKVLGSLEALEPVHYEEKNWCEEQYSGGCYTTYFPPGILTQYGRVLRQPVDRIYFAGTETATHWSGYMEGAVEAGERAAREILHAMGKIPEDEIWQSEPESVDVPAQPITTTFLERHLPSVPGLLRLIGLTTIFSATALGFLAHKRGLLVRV
Assay: MAO-B inhibition, in vitro fluorometric method
Type: biochemical
Details: read-out: MAO-B % inhibition, 10^−3 M
One number for each entry, in %.

Q) // lookup inhibition at 1000 µM for COc1ccc2sc(NC(=O)c3ccc(CN4CCN(C(C)C)CC4)cc3)nc2c1 [4l]
A) 77.9

Q) inhibition at 1000 µM for CC(C)N1CCN(Cc2ccc(C(=O)Nc3nc4ccccc4s3)cc2)CC1 [4e] ?
A) 72.7

# input for lookup
Q) Can you share its inhibition at 1000 µM? I mean this molecule: COc1ccc2sc(NC(=O)c3ccc(CN4CCN(CCCN(C)C)CC4)cc3)nc2c1 [4n]
A) 70.3

====

Kindly state inhibition at 100 µM for each of the entries shown.
target: MAO-B (Homo sapiens, UniProt P27338); test: MAO-B inhibition, in vitro fluorometric method; format: biochemical; conditions: read-out: MAO-B % inhibition, 10^−4 M
Numbers only, in %.

Q) Give MAO-B (Homo sapiens, UniProt P27338) inhibition at 100 µM for CN(C)CCCN1CCN(Cc2ccc(C(=O)Nc3nc4ccccc4s3)cc2)CC1
A) 42.5

Q) Please tell me: inhibition at 100 µM of C=CCN1CCN(Cc2ccc(C(=O)Nc3nc4ccccc4s3)cc2)CC1 , system MAO-B (Homo sapiens, UniProt P27338)?
A) 40.3

Batch: inhibition at 100 µM for all items listed.
1. CC(C)N1CCN(Cc2ccc(C(=O)Nc3nc4ccccc4s3)cc2)CC1
2. COc1ccc2sc(NC(=O)c3ccc(CN4CCN(CCCN(C)C)CC4)cc3)nc2c1

A)
[44.6, 41]

Would you mind giving inhibition at 100 µM for every molecule in the list below?
1. CCN1CCN(Cc2ccc(C(=O)Nc3nc4ccccc4s3)cc2)CC1
2. CCN1CCN(Cc2ccc(C(=O)Nc3nc4cc(OC)ccc4s3)cc2)CC1
3. COc1ccc2sc(NC(=O)c3ccc(CN4CCN(C(C)C)CC4)cc3)nc2c1
4. C=CCN1CCN(Cc2ccc(C(=O)Nc3nc4cc(OC)ccc4s3)cc2)CC1

A)
1: 42.3; 2: 41.7; 3: 40.7; 4: 43.5

====

molecular target: MAO-B (Homo sapiens, UniProt P27338)
recorded_metric: pIC50
One number for each entry, as −log10 of the molar value.

Field: example entries. Status: answers known.
Q) Give its pIC50 value. Item: C#CCN1CCN(Cc2ccc(C(=O)Nc3nc4cc(OC)ccc4s3)cc2)CC1 [4k]
A) 6.91

Q) What value of measured pIC50 is listed for COc1ccc2sc(NC(=O)c3ccc(CN4CCN(C)CC4)cc3)nc2c1 [4h] ?
A) 7.07

Q) Name the reported pIC50 value associated with the compound COc1ccc2sc(NC(=O)c3ccc(CN4CCN(CCN(C)C)CC4)cc3)nc2c1 [4m]
A) 7.25

***
Q) Consider the compound shown here: C#CCN1CCN(Cc2ccc(C(=O)Nc3nc4ccccc4s3)cc2)CC1 [4d] What is its recorded pIC50?
A) 6.96

====

target: beta amyloid 1–42 (Aβ42) (Homo sapiens, UniProt P05067); experiment: fluorometric beta amyloid 1–42; format: biochemical; conditions: read-out: Percent inhibition of beta amyloid 1–42 (Aβ42) peptide aggregation
Sequence (P05067 672-713): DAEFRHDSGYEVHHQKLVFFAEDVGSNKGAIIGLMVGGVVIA
For each record, write down the corresponding inhibition at 0.01 µM.
Answers are plain numbers, in %.

Please review the entries below; each comes with its answer.
Q) Given the entry COc1ccc2sc(NC(=O)c3ccc(CN4CCN(CCN(C)C)CC4)cc3)nc2c1 , report its measured inhibition at 0.01 µM.
A) 53.6

Q) Could you share which inhibition at 0.01 µM value was measured for C#CCN1CCN(Cc2ccc(C(=O)Nc3nc4ccccc4s3)cc2)CC1 ?
A) 36.2

For every item in the list below, what is its measured inhibition at 0.01 µM?
1. CN1CCN(Cc2ccc(C(=O)Nc3nc4ccccc4s3)cc2)CC1
2. CN(C)CCN1CCN(Cc2ccc(C(=O)Nc3nc4ccccc4s3)cc2)CC1
3. COc1ccc2sc(NC(=O)c3ccc(CN4CCN(C)CC4)cc3)nc2c1
4. C#CCN1CCN(Cc2ccc(C(=O)Nc3nc4cc(OC)ccc4s3)cc2)CC1

A)
1. 47.4
2. 58.6
3. 41.8
4. 35.4

====

Target: MAO-B (Homo sapiens)
Sequence (P27338 1-520): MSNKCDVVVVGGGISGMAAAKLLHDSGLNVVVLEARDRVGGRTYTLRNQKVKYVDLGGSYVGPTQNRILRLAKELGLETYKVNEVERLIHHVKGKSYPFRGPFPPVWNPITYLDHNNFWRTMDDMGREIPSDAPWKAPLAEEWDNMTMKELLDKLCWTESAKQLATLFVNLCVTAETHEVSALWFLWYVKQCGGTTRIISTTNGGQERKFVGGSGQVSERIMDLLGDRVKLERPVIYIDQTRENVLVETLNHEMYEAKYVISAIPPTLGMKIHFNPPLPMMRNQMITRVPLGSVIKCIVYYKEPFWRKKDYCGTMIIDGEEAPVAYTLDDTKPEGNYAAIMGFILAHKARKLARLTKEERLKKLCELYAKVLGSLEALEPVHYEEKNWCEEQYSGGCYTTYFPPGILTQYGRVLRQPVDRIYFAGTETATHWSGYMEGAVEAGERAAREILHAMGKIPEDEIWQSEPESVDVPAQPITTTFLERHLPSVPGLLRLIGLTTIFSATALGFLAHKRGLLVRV
Provide the recorded IC50 for the entries that follow.

In the examples that follow, each entry is paired with its recorded IC50.
Q) Recall the recorded IC50 for CCN1CCN(Cc2ccc(C(=O)Nc3nc4cc(OC)ccc4s3)cc2)CC1 [4i] with MAO-B (Homo sapiens) and state it.
A) > 100 µM

Q) Notebook entry, MAO-B (Homo sapiens) assay: IC50 of COc1ccc2sc(NC(=O)c3ccc(CN4CCN(CCCN(C)C)CC4)cc3)nc2c1 [4n] = ?
A) > 100 µM

Next:
Q) Param readout= IC50; system= MAO-B (Homo sapiens); entry= CN1CCN(Cc2ccc(C(=O)Nc3nc4ccccc4s3)cc2)CC1 [4a] ; returns value.
A) 0.0674 µM

This collection of values is drawn from paper PMC9389372.
